tested on: HCC827 cells (EGFR Exon19 del, non-small cell lung cancer cells); experiment: Cell viability assay (WST/CCK8), HCC827 cells; format: cell-based; conditions: Homo sapiens, HCC827, 72 h, HCC827 (Exon19 Del), 72 hours, WST (CCK8); read-out: IC50 (half inhibitory concentration)
pIC50: −log10 of the molar value.
Measured quantity: pIC50

Identify pIC50 associated with the molecule "COc1cc2ncnc(Nc3ccc(F)c(Cl)c3)c2cc1NC(=O)/C=C/CN1CCN(C(=O)CCC(=O)N[C@H](C(=O)N2C[C@H](O)C[C@H]2C(=O)NCc2ccc(-c3scnc3C)cc2)C(C)(C)C)CC1"
7.42

[P] COc1cc2ncnc(Nc3ccc(F)c(Cl)c3)c2cc1NC(=O)/C=C/CN1CCC(N2CCN(C(=O)CCCCCSc3cccc4c3CN(C3CCC(=O)NC3=O)C4=O)CC2)CC1 (centres unmarked)
[Q] COc1cc2ncnc(Nc3ccc(F)c(Cl)c3)c2cc1NC(=O)/C=C/CN1CCN(C(=O)COCCOCCSc2cccc3c2CN(C2CCC(=O)NC2=O)C3=O)CC1 (centres unmarked)
[R] COc1cc2ncnc(Nc3ccc(F)c(Cl)c3)c2cc1NC(=O)/C=C/CN1CCN(C(=O)CCNc2cccc3c2C(=O)N(C2CCC(=O)NC2=O)C3=O)CC1 (centres unmarked)
[S] COc1cc2ncnc(Nc3ccc(F)c(Cl)c3)c2cc1NC(=O)/C=C/CN1CCN(C(=O)CCCSc2cccc3c2C(=O)N(C2CCC(=O)NC2=O)C3=O)CC1 (centres unmarked)
Order by pIC50, ascending. Give your ranking as a list of the labels in the requested order.
Q, S, R, P
(Q: 7.57, S: 8.09, R: 8.35, P: 8.66)

* * *

test system: HCC827 cells (EGFR Exon19 del, non-small cell lung cancer cells); assay: Cell viability assay (WST/CCK8), HCC827 cells; type: cell-based; conditions: Homo sapiens, HCC827, 72 h, HCC827 (Exon19 Del), 72 hours, WST (CCK8); read-out: IC50 (half inhibitory concentration)
Measured quantity: IC50 (nM)

Identify IC50 associated with the molecule COc1cc2ncnc(Nc3ccc(F)c(Cl)c3)c2cc1NC(=O)/C=C/CN1CCN(C(=O)CCCCNc2cccc3c2CN(C2CCC(=O)NC2=O)C3=O)CC1 (stereo not shown)
5.5

Identify IC50 associated with the molecule COc1cc2ncnc(Nc3ccc(F)c(Cl)c3)c2cc1NC(=O)/C=C/CN1CCC(NC(=O)CCCCCNc2cccc3c2C(=O)N(C2CCC(=O)NC2=O)C3=O)CC1 (stereo not shown)
3

Identify IC50 associated with the molecule COc1cc2ncnc(Nc3ccc(F)c(Cl)c3)c2cc1NC(=O)/C=C/CN1CCC(N2CCN(C(=O)CCCCCCCCCCSc3cccc4c3CN(C3CCC(=O)NC3=O)C4=O)CC2)CC1 (stereo not shown)
0.3

[a] COc1cc2ncnc(Nc3ccc(F)c(Cl)c3)c2cc1NC(=O)/C=C/CN1CCC(N2CCN(CCCCC#Cc3cccc4c3CN(C3CCC(=O)NC3=O)C4=O)CC2)CC1 (stereo not shown)
[b] COc1cc2ncnc(Nc3ccc(F)c(Cl)c3)c2cc1NC(=O)/C=C/CN1CCC(NC(=O)CCCSc2cccc3c2CN(C2CCC(=O)NC2=O)C3=O)CC1 (stereo not shown)
Name the one with the greater IC50 value, either a or b as given. Kindly state the label of the option you pick.
b
(b: 14 nM, a: 2.5 nM)

[a] COc1cc2ncnc(Nc3ccc(F)c(Cl)c3)c2cc1NC(=O)/C=C/CN1CCC(NC(=O)CCCCCCCCCCSc2cccc3c2CN(C2CCC(=O)NC2=O)C3=O)CC1 (stereo not shown)
[b] COc1cc2ncnc(Nc3ccc(F)c(Cl)c3)c2cc1NC(=O)/C=C/CN1CCC(NC(=O)CCOCCOCCNc2cccc3c2C(=O)N(C2CCC(=O)NC2=O)C3=O)CC1 (stereo not shown)
[c] COc1cc2ncnc(Nc3ccc(F)c(Cl)c3)c2cc1NC(=O)/C=C/CN1CCN(C(=O)CCSc2cccc3c2C(=O)N(C2CCC(=O)NC2=O)C3=O)CC1 (stereo not shown)
[d] COc1cc2ncnc(Nc3ccc(F)c(Cl)c3)c2cc1NC(=O)/C=C/CN1CCN(C(=O)COCCOCCSc2cccc3c2C(=O)N(C2CCC(=O)NC2=O)C3=O)CC1 (stereo not shown)
[e] COc1cc2ncnc(Nc3ccc(F)c(Cl)c3)c2cc1NC(=O)/C=C/CN1CCC(N2CCN(CCCCCCCCCCCSc3cccc4c3CN(C3CCC(=O)NC3=O)C4=O)CC2)CC1 (stereo not shown)
Rank the 5 molecules: largest IC50 first, smallest last. Give your ranking as a list of the labels in the requested order.
d, e, b, c, a
